Reported IC50 values follow for various compounds
- TESTED_ON: human recombinant MAGL (Homo sapiens (Human))
- Sequence (Q99685 whole entry): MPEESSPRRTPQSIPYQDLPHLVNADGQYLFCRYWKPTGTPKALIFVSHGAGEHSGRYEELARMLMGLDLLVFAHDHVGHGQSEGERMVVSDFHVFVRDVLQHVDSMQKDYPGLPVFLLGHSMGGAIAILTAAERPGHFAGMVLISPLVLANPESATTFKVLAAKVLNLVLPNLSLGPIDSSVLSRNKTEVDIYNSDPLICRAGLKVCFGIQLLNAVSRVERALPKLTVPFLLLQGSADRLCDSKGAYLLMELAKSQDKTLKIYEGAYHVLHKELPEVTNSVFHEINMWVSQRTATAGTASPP
- PROTOCOL_NOTES: In vitro inhibition of MAGL activity (inhibitor screening kit, 4-nitrophenylacetate)
- CONDITION_INFO: human recombinant MAGL

# annotated cases, reported IC50 shown
>>> experimental_result("O=C(Oc1cccc(-c2cncc(-c3nnco3)c2)c1)N1CCOCC1 [Example 151]")
"> 10 µM"
>>> experimental_result("COc1ccc(OC(=O)NC2CCCC2)cc1-c1cncc(-c2ncn[nH]2)c1 [Example 235]")
"> 10 µM"
>>> experimental_result("Cc1cc(OC(=O)NCC2CCCCC2)cc(-c2cncc(-c3ncco3)c2)c1 [Example 99]")
"~10 µM"
>>> experimental_result("CCCCCCCCNC(=O)Oc1ccc(OC(F)(F)F)c(-c2cncc(-c3nnco3)c2)c1 [Example 199]")
"1 to 10 µM"
>>> experimental_result("O=C(NCc1ccccc1)Oc1cc(F)cc(-c2cncc(-c3nnco3)c2)c1 [Example 196]")
"~10 µM"

Pending compound:
Ask: # return recorded IC50 for input Cc1ccc(-c2cncc(-c3ncco3)c2)cc1OC(=O)NC1CCCCCCC1 [Example 98]
Result: ~1 µM
